Data provenance: PubChem BioAssay (Tox21)

assay: Caspase-3/7 induction in CHO-K1 cells by small molecules, qHTS assay (AID 1346980); settings: CHO-K1 caspase-3/7 induction, Caspase-Glo luminescence, 17 h; series mostly up to 92.4 µM; further: nearly all actives have a fitted effect of over 15% in size
Activity calls are given as the source filed them. The call rests on the fitted dose curve; in most records, active means well fitted activation curve with a large enough effect in the repeat runs; inconclusive means weak or mixed curves; inactive means flat fitted curve, though single readings scatter.
Choose the fitting class; nothing outside active, inactive is accepted.

CC(=O)N[C@@H](CS)C(=O)O ... inactive
NNCCc1ccccc1 ... inactive
CCC(=O)/C=C/C1C(C)=CCCC1(C)C (stereo not given) ... inactive

Just curious, what result did CC(C)CCCCCCc1ccc(O)cc1 get here?
active

Just curious, what result did NC12CC3CC(CC(C3)C1)C2 get here?
inactive

Just curious, what result did O=C(Oc1ccccc1)c1ccccc1O get here?
inactive

Just curious, what result did O=C(O)CP(=O)(O)O get here?
inactive

Just curious, what result did CCCNC(C)C(=O)Nc1ccccc1C (stereo not given) get here?
inactive

Just curious, what result did CCCCOCCOC(=O)c1ccccc1C(=O)OCCOCCCC get here?
inactive

Just curious, what result did CC(C)(c1ccccc1)c1ccc(Nc2ccc(C(C)(C)c3ccccc3)cc2)cc1 get here?
inactive

Just curious, what result did CC(C)(C)c1cc(C(C)(C)C)c(O)c(C(C)(C)C)c1 get here?
inactive

Just curious, what result did OCC(CO)N[C@H]1C[C@](O)(CO)[C@@H](O)[C@H](O)[C@H]1O get here?
inactive

Just curious, what result did [Cl][In]([Cl])[Cl] get here?
inactive

###

assay: qHTS assay to identify small molecule agonists of the AP-1 signaling pathway (AID 1159526); conditions: ME-180 (cervical carcinoma) AP-1-bla reporter, beta-lactamase FRET ratio, 5 h; series mostly up to 76.8 µM
Inconclusive results are not listed. Active and inactive are the calls of the source. Calls follow the shape of the full dose curve.
Choose the fitting class; nothing outside Yes (active), No (inactive) is accepted.

Below are worked cases with known answers.
CCC[C@H](N[C@@H](C)C(=O)N1[C@H](C(=O)O)C[C@@H]2CCCC[C@@H]21)C(=O)OCC ... No
CC1=C(C=O)C(C)(C)CC=C1 ... No
CCCN[C@H]1CCc2nc(N)sc2C1 ... No

Just curious, what result did CC(=O)N[C@@H](CS)C(=O)O get here?
No

Just curious, what result did NCCCCCC(=O)O get here?
No

Just curious, what result did c1ccc2n[nH]nc2c1 get here?
No

###

target: Peroxisome proliferator-activated receptor gamma (Homo sapiens); experiment: qHTS assay to identify small molecule agonists of the peroxisome proliferator-activated receptor gamma (PPARg) signaling pathway (AID 743094); details: HEK293H PPARg-UAS-bla, beta-lactamase FRET ratio, 17 h; series mostly up to 57 µM
Records with an inconclusive call do not appear. Activity calls are given as the source filed them. Calls follow the shape of the dose curve; as a rule, active = well fitted activation curve with a large enough effect in the signal ratio in the repeat runs (not every such curve was filed as active); inconclusive = weak or mixed curves, or effect the other way; inactive = no such curve, though single readings can be large or run the other way; the % refers to the signal ratio.
property: outcome

Below, each entry is followed by its recorded outcome result.
CC(=O)CC(=O)Nc1ccc2[nH]c(=O)[nH]c2c1 ... inactive
O=C(Cl)c1cccc(C(=O)Cl)c1 ... inactive
C[N+]1([O-])CCOCC1 ... inactive
CCCOC(=O)c1cc(O)c(O)c(O)c1 ... inactive
CCCCCC(=O)O[C@]1(C(C)=O)CC[C@H]2[C@@H]3CCC4=CC(=O)CC[C@]4(C)[C@H]3CC[C@@]21C ... inactive

Okay, now this compound:
Which outcome value is on record for Cc1cccc(O)c1C ?
inactive

###

target: Cytochrome P450 2D6 (Homo sapiens) (UniProt P10635); assay: Cytochrome P450 Family 2 Subfamily D Member 6 (CYP2D6) small molecule antagonists: luciferase reporter qHTS assay (AID 1671196); conditions: P450-Glo CYP2D6 enzyme assay, luciferin luminescence, 1 h; series mostly up to 115 µM; further: nearly all actives have a fitted effect of over 50% in size; further: potency means the concentration at half of the fitted maximal effect
Sequence (P10635 whole entry, looked up): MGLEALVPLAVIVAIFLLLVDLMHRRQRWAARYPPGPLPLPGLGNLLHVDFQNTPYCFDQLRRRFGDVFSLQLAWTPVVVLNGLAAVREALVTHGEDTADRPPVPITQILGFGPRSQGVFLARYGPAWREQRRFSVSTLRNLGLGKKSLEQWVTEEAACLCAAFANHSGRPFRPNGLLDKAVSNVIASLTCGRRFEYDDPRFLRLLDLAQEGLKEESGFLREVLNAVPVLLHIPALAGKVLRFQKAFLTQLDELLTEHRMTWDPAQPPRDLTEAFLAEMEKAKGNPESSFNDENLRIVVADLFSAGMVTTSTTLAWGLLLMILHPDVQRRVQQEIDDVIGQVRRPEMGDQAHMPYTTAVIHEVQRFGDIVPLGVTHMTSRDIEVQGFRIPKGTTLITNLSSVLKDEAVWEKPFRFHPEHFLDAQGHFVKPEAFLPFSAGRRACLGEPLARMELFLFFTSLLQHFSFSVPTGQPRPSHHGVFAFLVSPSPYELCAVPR
Records with an inconclusive call do not appear. Active and inactive are the calls of the source. Calls follow the shape of the dose curve; as a rule, active = well fitted inhibition curve with a large enough effect in the repeat runs; inconclusive = weak or mixed curves; inactive = no such curve, though single readings can be large or run the other way.
property: Potency

Below, each entry is followed by its recorded Potency result.
Nc1cc(S(=O)(=O)O)cc2cc(S(=O)(=O)O)cc(O)c12 ... 35.6 µM (active)
COc1cc(C(=S)N2CCOCC2)ccc1O ... inactive
Cc1scc2c1N(C(=O)CN1CCN(C)CC1)c1ccccc1NC2=O ... inactive
C1COC(NC(C2CC2)C2CC2)=N1 ... 15.5 µM (active)
CCN1CCCC1CNC(=O)c1cc(S(=O)(=O)CC)c(N)cc1OC (stereo not drawn) ... 9.77 µM (active)

Which Potency value is on record for CCC(=O)/C=C/C1C(C)=CCCC1(C)C (stereo not drawn) ?
inactive

Which Potency value is on record for Cc1cc(C2(c3cc(C)c(O)cc3C)OS(=O)(=O)c3ccccc32)c(C)cc1O ?
39.9 µM (active)

Which Potency value is on record for C#CC(C)(CC)OC(=O)c1ccccc1C(=O)O (stereo not drawn) ?
inactive

Which Potency value is on record for CCCCC/C=C/CC1CC(=O)OC1=O (stereo not drawn) ?
inactive

Which Potency value is on record for CC1=CC(=O)c2ccccc2C1=O ?
31.7 µM (active)
